target: NfGlck; assay: coupled glucokinase assay, absorbance at […] nm; format: biochemical, Naegleria fowleri
PROPERTY LABEL: Ki (µM)
Report the value in µM with no unit label.

What Ki value was documented for this compound, `Nc1ncnc2c1ncn2[C@@H]1O[C@H](COP(=O)(O)OP(=O)(O)O)[C@@H](O)[C@H]1O` ?
116

====

The reader will find reported IC50 values listed item by item below.
target: NfGlck; assay: coupled glucokinase assay, absorbance at […] nm; type: biochemical, Naegleria fowleri; conditions: pH 7.4, MgCl2

>>> result("CC(C)(C)c1ccc(C(=O)Nc2cc(Cl)c(-c3ccccc3O)cc2C(=O)O)cc1")
"> 10 µM"

Tell me reported IC50 for `CC(C)(C)c1ccc(C(=O)Nc2cc(Cl)c(-c3cccnc3)cc2C(=O)O)cc1` , tested with NfGlck.
> 10 µM

Tell me reported IC50 for `CC(C)(C)c1ccc(C(=O)Nc2cc(Cl)c(-c3ccc(O)cc3)cc2C(=O)O)cc1` , tested with NfGlck.
> 10 µM

Tell me reported IC50 for `O=c1c2ccccc2[se]n1-c1ccccc1` , tested with NfGlck.
0.88 µM

Tell me reported IC50 for `CC(C)(C)c1ccc(C(=O)Nc2cc(Cl)c(-c3ccccc3F)cc2C(=O)O)cc1` , tested with NfGlck.
> 10 µM

Where do the numbers come from? From paper doi:10.1101/469072v1.
